Give measured Body Weight Gain for each item. Keep answers brief.
# Tested on: adjuvant arthritis in rats
# Measurement protocol: Chronic adjuvant arthritis test (Table I)
# Assay type: in vivo, male Charles River Lewis rats
# Conditions: oral 75 μMol/Kg; vehicle 28-31

Known Body Weight Gain results, listed for orientation:
CCCCCCCCCOc1cccc(F)c1/C=C/C(C)=C/C=C/C(C)=C/C(=O)O +46 g
CCCCCCCCCOc1cccc(Cl)c1/C=C/C(C)=C/C=C/C(C)=C/C(=O)O +35 g

For every listed record, write down its Body Weight Gain.
1. CCCCCCCCCOc1ccc(OC)cc1/C=C/C(C)=C/C=C/C(C)=C/C(=O)O
2. CCCCCCCCNc1ccccc1/C=C/C(C)=C/C=C/C(C)=C/C(=O)OCC

result:
1. +27 g
2. +24 g

====

# Measurement protocol: in vivo
# Conditions: mouse, po
Readout name: LD50

Please fill in: LD50 reported for `CCCCCCCCCOc1ccccc1/C=C/C(C)=C/C=C/C(C)=C/C(=O)O` = > 1000 mg/kg
